Hey, just so you know, these numbers are from the RNAGym collection of RNA variant scans (doi:10.1021/acssynbio.7b00057).

Measured aptazyme ON/OFF ratio, listed per entry for reference.
B1: Pistol ribozyme (parent)
chain: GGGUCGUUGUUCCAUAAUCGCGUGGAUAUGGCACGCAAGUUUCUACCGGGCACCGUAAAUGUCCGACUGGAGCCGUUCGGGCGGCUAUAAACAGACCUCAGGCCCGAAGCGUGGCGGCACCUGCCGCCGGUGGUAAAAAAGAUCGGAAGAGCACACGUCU

variants of: B1; assay: aptazyme ON/OFF ratio, guanine; higher = stronger switching; co-transcriptional cleavage with and without guanine
Reported Property: aptazyme ON/OFF ratio

| Variant Name | Reported Property | Value Measured |
| --- | --- | --- |
| U7C U8C G9U U10G U11C C12G C13A | aptazyme ON/OFF ratio | 1.08 |
| U7G G9C U10A U11C C13A | aptazyme ON/OFF ratio | 1.21 |
| U8A U10C U11G C12A | aptazyme ON/OFF ratio | 1.09 |
| U7C U8G G9A U10A U11A C12U | aptazyme ON/OFF ratio | 1.18 |
| U7A U8G G9U U11A C12A C13G | aptazyme ON/OFF ratio | 1.38 |
| U7G U8C G9A U10C U11C C12A C13U | aptazyme ON/OFF ratio | 1.2 |
| U7G U8G G9U U10G U11G C13U | aptazyme ON/OFF ratio | 1.11 |
| G9A U11G C12A C13U | aptazyme ON/OFF ratio | 1.32 |
